- Test system: SNB-75 CNS
- Assay summary: NCI tumour cell line growth inhibition, 48 h
Reported metric: TGI

Parameters: items (list). Returns: TGI for each item.
1. O=c1[nH]c(-c2cccc(F)c2)nc2ccccc12
2. CC#CS(=O)(=O)c1ccccc1
3. O=[N+]([O-])c1cc(CCl)ccc1CCl
4. CCOC(=O)c1sc2nc(SC)nc3c2c1N=CN3c1ccccc1Cl
5. O=C(O)C1NCCc2c1[nH]c1ccccc21 (configuration not stated)
6. Clc1cc(Cl)c(Cl)c(-c2nc(-c3cccnc3)cs2)c1
7. ClCc1ccc(-c2ccc(Cn3cnc4c(Cl)nc(Cl)nc43)cc2)cc1
8. CCOC(=O)/C(=C/c1ccc([N+](=O)[O-])cc1)C(=O)c1ccccc1

Result:
1: 62.7 µM; 2: 13.9 µM; 3: 6.88 µM; 4: 36.3 µM; 5: > 100 µM; 6: 80.6 µM; 7: 7.81 µM; 8: 4.22 µM
